Target: RNA-directed RNA polymerase (Hepacivirus hominis, UniProt O39930)
Sequence (O39930 whole entry): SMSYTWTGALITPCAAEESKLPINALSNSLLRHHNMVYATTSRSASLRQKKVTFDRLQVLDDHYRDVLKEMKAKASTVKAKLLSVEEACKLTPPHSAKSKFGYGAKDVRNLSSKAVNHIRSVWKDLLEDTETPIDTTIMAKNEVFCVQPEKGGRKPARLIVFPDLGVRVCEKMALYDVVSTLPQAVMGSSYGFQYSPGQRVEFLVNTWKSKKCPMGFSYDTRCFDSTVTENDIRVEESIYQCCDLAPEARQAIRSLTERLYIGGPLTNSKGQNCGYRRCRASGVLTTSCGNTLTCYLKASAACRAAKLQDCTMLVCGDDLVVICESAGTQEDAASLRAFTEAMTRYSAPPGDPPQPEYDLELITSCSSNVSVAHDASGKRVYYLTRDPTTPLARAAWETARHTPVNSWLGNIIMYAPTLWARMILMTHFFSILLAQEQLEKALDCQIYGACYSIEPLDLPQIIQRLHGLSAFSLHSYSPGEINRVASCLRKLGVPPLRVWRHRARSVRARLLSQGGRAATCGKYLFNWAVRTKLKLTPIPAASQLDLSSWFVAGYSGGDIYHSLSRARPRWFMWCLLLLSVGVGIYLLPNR
Assay: Inhibition of HCV NS5B RNA polymerase
pIC50: −log10 of the molar value.
Reported pIC50 values follow for various compounds

entry.smiles: O=C(O)c1ccc2c(C3CCCCC3)c3n(c2c1)CCc1ccccc1-3
pIC50: 6.85

entry.smiles: Cn1c(-c2ccc(OCc3ccccc3)cc2)c(C2CCCCC2)c2ccc(C(=O)O)cc21
pIC50: 6.92

entry.smiles: O=C(O)c1ccc2c(C3CCCCC3)c3n(c2c1)CCOc1cc(OCc2ccccc2)ccc1-3
pIC50: 7.77

entry.smiles: O=C(O)c1ccc2c(C3CCCCC3)c3n(c2c1)CCN(CCc1ccccc1)c1ccccc1-3
pIC50: 7.59

entry.smiles: CN1CCn2c(c(C3CCCCC3)c3ccc(C(=O)O)cc32)-c2ccccc21
pIC50: 7.72

entry.smiles: Cl.Cl.O=C(O)c1ccc2c(C3CCCCC3)c3n(c2c1)CCN(CCN1CCCCC1)c1ccccc1-3
pIC50: 8.05

entry.smiles: O=C(O)c1ccc2c(C3CCCCC3)c3n(c2c1)COc1ccccc1-3
pIC50: 6.85

entry.smiles: CN(C)C(=O)CN1CCn2c(c(C3CCCCC3)c3ccc(C(=O)O)cc32)-c2ccccc21
pIC50: 7.62

entry.smiles: O=C(O)c1ccc2c(C3CCCCC3)c3n(c2c1)CCOc1ccccc1-3
pIC50: 7.59

entry.smiles: O=C(O)c1ccc2c(C3CCCCC3)c3n(c2c1)CCSc1ccccc1-3
pIC50: 7.42

* * *

Assay: Permeability across Caco-2 cells
Assay type: ADME, cell-based
Conditions: human, read-out: permeability

entry.smiles: Cl.O=C(O)c1ccc2c(C3CCCCC3)c3n(c2c1)CCNc1ccccc1-3
Papp, ×10⁻⁶ cm/s: 55.9
--
entry.smiles: CN(C)C(=O)CN1CCn2c(c(C3CCCCC3)c3ccc(C(=O)O)cc32)-c2ccccc21
Papp, ×10⁻⁶ cm/s: 51.9
--
entry.smiles: Cl.Cl.O=C(O)c1ccc2c(C3CCCCC3)c3n(c2c1)CCN(CCN1CCCCC1)c1ccccc1-3
Papp, ×10⁻⁶ cm/s: 18.6
--
entry.smiles: CN(C)CCN1CCn2c(c(C3CCCCC3)c3ccc(C(=O)O)cc32)-c2ccccc21.Cl.Cl
Papp, ×10⁻⁶ cm/s: 19.2
